# Organism: Rattus norvegicus
# Experiment summary: Open TG-GATES - Regimen: Single
# Format: toxicity, organism-based, Sprague-Dawley
# Parameters: regimen Single, gender Male, age 6 weeks
# Setup conditions: in vivo, po, 0 mg/kg, 24 h, tissue Plasma, route gavage, dose level Control
Hi there, I'd appreciate the recorded CRE for every entry that follows.
Return type: number; implicit unit mg/dL.

Field request: CRE | item: NC(N)=Nc1nc(CSCCC(N)=NS(N)(=O)=O)cs1
0.4

Please give the measured CRE for this compound: CC(C)OC(=O)C(C)(C)Oc1ccc(C(=O)c2ccc(Cl)cc2)cc1 [FENOFIBRATE]
0.2

I am curious: what CRE value has been reported for CN(C)CCCN1c2ccccc2CCc2ccc(Cl)cc21 ?
0.2

What value of measured CRE is listed for CN(C)CCN(Cc1cccs1)c1ccccn1 ?
0.2

Item CC1=C(/C=C/C(C)=C/C=C/C(C)=C/CO)C(C)(C)CCC1 has what recorded CRE?
0.2

---

# Species on record: Rattus norvegicus
# Experiment summary: Open TG-GATES - Regimen: Daily Repeat
# Type: toxicity, organism-based, Sprague-Dawley
# Set-up: regimen Daily Repeat, gender Male, age 6 weeks
# Setup conditions: in vivo, po, 0 mg/kg, […], tissue Blood, route gavage, dose level Control, time 28 day
Think of 20 s as a floor: if APTT stands on it or above, it is True; beneath it, False.

Quick check: does COc1ccc2[nH]c([S+]([O-])Cc3ncc(C)c(OC)c3C)nc2c1 (stereo not drawn) [OMEPRAZOLE] have APTT greater than or equal to 20 s?
True

Could you tell me if the measured APTT of COC1=CC(=O)C[C@@H](C)[C@]12Oc1c(Cl)c(OC)cc(OC)c1C2=O [GRISEOFULVIN] reaches 20 s or more?
True

Exam item: decide whether the reported APTT for NNC(=O)c1ccncc1 [ISONIAZID] is at least 20 s.
False

Please tell me: is the compound NC(N)=Nc1nc(CSCCC(N)=NS(N)(=O)=O)cs1 [FAMOTIDINE] at or over 20 s in terms of APTT?
True

Check the entry CCOC(=O)CCC(=O)O[C@H]1[C@H](O[C@@H]2[C@@H](C)[C@H](O[C@H]3C[C@@](C)(OC)[C@@H](O)[C@H](C)O3)[C@@H](C)C(=O)O[C@H](CC)[C@@](C)(O)[C@H](O)[C@@H](C)C(=O)[C@H](C)C[C@@]2(C)O)O[C@H](C)C[C@@H]1N(C)C [ERYTHROMYCIN ETHYLSUCCINATE] : does APTT equal or exceed 20 s?
True

Evaluate CC1=C(/C=C/C(C)=C/C=C/C(C)=C/CO)C(C)(C)CCC1 [RETINOL] : APTT at minimum 20 s?
True

Answer whether APTT of CN(C)CCCN1c2ccccc2CCc2ccccc21 [IMIPRAMINE] is greater than or equal to 20 s.
False

Hi, just wondering whether CCCNC(=O)NS(=O)(=O)c1ccc(Cl)cc1 [CHLORPROPAMIDE] shows APTT of 20 s or higher.
True

---

Assign TERMINAL_BW to each entry below.
# Organism: Rattus norvegicus
# Experiment summary: Open TG-GATES - Regimen: Single
# Format: toxicity, organism-based, Sprague-Dawley
# Parameters: regimen Single, gender Male, age 6 weeks
# Setup conditions: in vivo, po, 300 mg/kg, 9 h, route gavage, dose level Middle
Hi! Could you send only the number? It should be in g, unit omitted.

What TERMINAL_BW value was documented for this molecule, CCOC(=O)CCC(=O)O[C@H]1[C@H](O[C@@H]2[C@@H](C)[C@H](O[C@H]3C[C@@](C)(OC)[C@@H](O)[C@H](C)O3)[C@@H](C)C(=O)O[C@H](CC)[C@@](C)(O)[C@H](O)[C@@H](C)C(=O)[C@H](C)C[C@@]2(C)O)O[C@H](C)C[C@@H]1N(C)C [ERYTHROMYCIN ETHYLSUCCINATE] ?
210.5

Fill blank: measured TERMINAL_BW of the molecule COC1=CC(=O)C[C@@H](C)[C@]12Oc1c(Cl)c(OC)cc(OC)c1C2=O [GRISEOFULVIN] is ____.
210.4

Using the record for COc1ccc2[nH]c([S+]([O-])Cc3ncc(C)c(OC)c3C)nc2c1 (centres undefined) [OMEPRAZOLE] , report its TERMINAL_BW.
218.4

Requested read-out: TERMINAL_BW. Entry: NC(N)=Nc1nc(CSCCC(N)=NS(N)(=O)=O)cs1 [FAMOTIDINE]
209.6

---

# Species: Rattus norvegicus
# Experiment summary: Open TG-GATES - Regimen: Daily Repeat
# Assay type: toxicity, organism-based, Sprague-Dawley
# Parameters: regimen Daily Repeat, gender Male, age 6 weeks
# Setup conditions: in vivo, po, 100 mg/kg, […], tissue Blood, route gavage, dose level Low, time 28 day
Binary classification by Neu, with 10% as an inclusive lower bound for condition met; all other cases are condition not met.

Dear colleague, could you confirm whether NC(N)=Nc1nc(CSCCC(N)=NS(N)(=O)=O)cs1 has Neu at or above 10%?
condition met

Hi team, for CCOc1ccc(NC(=O)CC(C)O)cc1 (stereo not given) , is the recorded Neu at or above 10%?
condition met

Decide: is the reported value of Neu for COC1=CC(=O)C[C@@H](C)[C@]12Oc1c(Cl)c(OC)cc(OC)c1C2=O equal to or greater than 10%?
condition met

Can COc1ccc2[nH]c([S+]([O-])Cc3ncc(C)c(OC)c3C)nc2c1 (stereo not given) be said to have Neu at or above 10%?
condition met

Quick check: does CCOC(=O)CCC(=O)O[C@H]1[C@H](O[C@@H]2[C@@H](C)[C@H](O[C@H]3C[C@@](C)(OC)[C@@H](O)[C@H](C)O3)[C@@H](C)C(=O)O[C@H](CC)[C@@](C)(O)[C@H](O)[C@@H](C)C(=O)[C@H](C)C[C@@]2(C)O)O[C@H](C)C[C@@H]1N(C)C [ERYTHROMYCIN ETHYLSUCCINATE] have Neu greater than or equal to 10%?
condition not met

---

For each of the compounds below, state its WBC.
# Species: Rattus norvegicus
# Experiment summary: Open TG-GATES - Regimen: Daily Repeat
# Type: toxicity, organism-based, Sprague-Dawley
# Design: regimen Daily Repeat, gender Male, age 6 weeks
# Setup conditions: in vivo, po, 0 mg/kg, […], tissue Blood, route gavage, dose level Control, time 28 day
Kindly format the answer as number then unit.

Consider the compound shown here: CCOC(=O)CCC(=O)O[C@H]1[C@H](O[C@@H]2[C@@H](C)[C@H](O[C@H]3C[C@@](C)(OC)[C@@H](O)[C@H](C)O3)[C@@H](C)C(=O)O[C@H](CC)[C@@](C)(O)[C@H](O)[C@@H](C)C(=O)[C@H](C)C[C@@]2(C)O)O[C@H](C)C[C@@H]1N(C)C [ERYTHROMYCIN ETHYLSUCCINATE] What is its recorded WBC?
109.9 x10_2/uL

Request the reported WBC associated with COC1=CC(=O)C[C@@H](C)[C@]12Oc1c(Cl)c(OC)cc(OC)c1C2=O [GRISEOFULVIN]
130.8 x10_2/uL

What does the record list as WBC for NC(N)=Nc1nc(CSCCC(N)=NS(N)(=O)=O)cs1 [FAMOTIDINE] ?
84.1 x10_2/uL

---

# Organism: Rattus norvegicus
# Experiment summary: Open TG-GATES - Regimen: Single
# Assay type: toxicity, organism-based, Sprague-Dawley
# Design: regimen Single, gender Male, age 6 weeks
# Setup conditions: in vivo, po, 100 mg/kg, 24 h, tissue Blood, route gavage, dose level High
Readout: Mono
Write down the value, and be sure its unit follows.

Value lookup for Mono; key = CN(C)CCCN1c2ccccc2CCc2ccccc21
2%

Quick one: Mono for CN(C)CCCN1c2ccccc2CCc2ccc(Cl)cc21 ?
2.6%

I am curious: what Mono value has been reported for CC1=C(/C=C/C(C)=C/C=C/C(C)=C/CO)C(C)(C)CCC1 ?
2.2%

Which value of Mono has been reported for CN(C)CCN(Cc1cccs1)c1ccccn1 in the records?
2.8%

---

I'd be grateful if you could share measured BUN for these entries.
# Species on record: Rattus norvegicus
# Experiment summary: Open TG-GATES - Regimen: Single
# Format: toxicity, organism-based, Sprague-Dawley
# Set-up: regimen Single, gender Male, age 6 weeks
# Setup conditions: in vivo, po, 100 mg/kg, 24 h, tissue Plasma, route gavage, dose level Low
The answer consists of two parts: a number and, after it, its unit.

Would you mind telling me what BUN value was observed for COc1ccc2[nH]c([S+]([O-])Cc3ncc(C)c(OC)c3C)nc2c1 (centres undefined) ?
15.8 mg/dL

Reported BUN for CCOC(=O)CCC(=O)O[C@H]1[C@H](O[C@@H]2[C@@H](C)[C@H](O[C@H]3C[C@@](C)(OC)[C@@H](O)[C@H](C)O3)[C@@H](C)C(=O)O[C@H](CC)[C@@](C)(O)[C@H](O)[C@@H](C)C(=O)[C@H](C)C[C@@]2(C)O)O[C@H](C)C[C@@H]1N(C)C [ERYTHROMYCIN ETHYLSUCCINATE] : what is it?
14 mg/dL

So what's the measured BUN for this one? NC(N)=Nc1nc(CSCCC(N)=NS(N)(=O)=O)cs1
14.2 mg/dL

Endpoint output: BUN of COC1=CC(=O)C[C@@H](C)[C@]12Oc1c(Cl)c(OC)cc(OC)c1C2=O . Value?
14.4 mg/dL
